experiment: Compound A plasma concentration and food effect in patients; format: in vivo, human; details: human, plasma; 250 mg BID, Day 8, 3 h post-dose peak
value-type: concentration at 3 h post-dose on Day 8
Field note: include the unit after the figure.

The value of concentration at 3 h post-dose on Day 8 measured for the compound Cc1ncc(F)c(Nc2n[nH]c3c2CN(C(=O)N2C[C@@H](C)N(CC4CCOCC4)C[C@@H]2C)C3(C)C)n1 [Compound A] turned out to be 1310 ng/mL

Reference for the values: patent US20230028918A1
